B1: WEE1 (parent)
chain: FLGSSFSPVRCGGPGDASPRGCGA

Variants of: B1
Experiment description: protein stability index of a GFP-peptide fusion (GPS, HEK-293T) (PSI 1-6); higher = more stable;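 further: lentivirally expressed fusions sorted by FACS into six bins by GFP to DsRed ratio, PSI derived from sequencing read proportions per bin multiplied by bin number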
Experimental setup: c terminus: a fixed tail appended
Quantity kind: protein stability index

As a guide, the following entries are already answered.
# Mutation code, protein stability index
rows = [
    ("V9Q", 1.76),
    ("G23V", 1.73),
]

QUERY: Specify protein stability index for P8L and stop.
RESULT: 2.15

QUERY: Specify protein stability index for G13Q and stop.
RESULT: 2.98

QUERY: Specify protein stability index for S18N and stop.
RESULT: 1.84

QUERY: Specify protein stability index for V9A and stop.
RESULT: 2.11

QUERY: Specify protein stability index for S5H and stop.
RESULT: 1.73

Attribution: the supplement of paper PMC10567573
